Hello, the source for this data is PubChem BioAssay AID330, in case you need it.

Test system: P388 leukemia ip, CD2F1 mice, survival T/C
Assay: NCI In Vivo Anticancer Drug Screen. Data for tumor model P388 Leukemia (intraperitoneal) in CD2F1 (CDF1) mice
Conditions: endpoint: median survival time; dose: 50.0 mg/kg/injection; schedule: Q01DX005 (ip); vehicle: Klucel (hydroxypropylcellulose) (HPC); higher = longer survival
Inconclusive results and toxic doses are left out. Square brackets hold non-standard residues; d marks the D form. Peptide text beside a SMILES is read from it. * marks the point of attachment. Cbz = O=C(OCc1ccccc1)*; Nva = CCC[CH](N)C(=O)O; OBn = c1ccc(CO*)cc1

compound	system-name	T/C
Nc1ncnc2c1ncn2C1CC(O)C(COC(c2ccccc2)(c2ccccc2)c2ccccc2)O1 (stereo unspecified)	P388 leukemia ip, CD2F1 mice, survival T/C	95 % of control
CC(C)(C)N1N=C2CCCC2[Si]1(C)C (stereo unspecified)	P388 leukemia ip, CD2F1 mice, survival T/C	102 % of control
CC(C)(C)c1ccc(C(=O)N2CCOC23CCCCC3)cc1	P388 leukemia ip, CD2F1 mice, survival T/C	105 % of control
CCOC(=O)C1=CNc2c(C#N)cnn2C12C(=O)Oc1ccc(OC)cc12 (stereo unspecified)	P388 leukemia ip, CD2F1 mice, survival T/C	105 % of control
O=C1NC(=O)C(=Cc2ccc([N+](=O)[O-])cc2)C(=O)N1	P388 leukemia ip, CD2F1 mice, survival T/C	107 % of control
CCCCOc1ncnc2nc[nH]c12	P388 leukemia ip, CD2F1 mice, survival T/C	103 % of control
CCCCCCCCCCCCCCC1(C(=O)OC)CO1 (stereo unspecified)	P388 leukemia ip, CD2F1 mice, survival T/C	102 % of control
Nc1ccc(C(=O)Nc2ccc(S(=O)(=O)O)c3cccc(O)c23)cc1	P388 leukemia ip, CD2F1 mice, survival T/C	109 % of control
CC[C@H]1OC(=O)[C@H](C)[C@@H](OC2CC(C)(OC)C(O)C(C)O2)[C@H](C)[C@@H](OC2OC(C)CC(N(C)C)C2OC(=O)CCC2CCCC2)[C@](C)(O)C[C@@H](C)C(=O)[C@H](C)[C@@H](O)[C@]1(C)O (stereo partly specified)	P388 leukemia ip, CD2F1 mice, survival T/C	96 % of control
CC1(C)C(=S)C(C)(C)C1=S	P388 leukemia ip, CD2F1 mice, survival T/C	104 % of control
C/C=C(\C)C(=O)N/N=C/c1cccnc1	P388 leukemia ip, CD2F1 mice, survival T/C	103 % of control
O=[N+]([O-])c1ccc(C(Nc2nncs2)Nc2nncs2)c([N+](=O)[O-])c1	P388 leukemia ip, CD2F1 mice, survival T/C	97 % of control
Cc1cc2ccccc2c[n+]1[O-]	P388 leukemia ip, CD2F1 mice, survival T/C	97 % of control
COc1ccc2c3c1O[C@H](c1ccc(O)cc1)[C@H]3[N+](C)(C)CC2	P388 leukemia ip, CD2F1 mice, survival T/C	103 % of control
COc1cc2c(cc1C(C)c1ccc(C)cc1)OCO2 (stereo unspecified)	P388 leukemia ip, CD2F1 mice, survival T/C	103 % of control
CCCn1c(C)nc2[nH]ncc2c1=O	P388 leukemia ip, CD2F1 mice, survival T/C	100 % of control
CC(=O)N(C)c1ccc(N)c2c1C(=O)c1ccccc1C2=O	P388 leukemia ip, CD2F1 mice, survival T/C	106 % of control
CCOC(=O)C(CCC[n+]1ccc2ccccc2c1)C(=O)OCC	P388 leukemia ip, CD2F1 mice, survival T/C	96 % of control
O=C(NC(CO)C(=O)N1CCCC1C(=O)OCc1ccccc1)OCc1ccccc1 (stereo not drawn) (Cbz-Ser-Pro-OBn; configuration not given here)	P388 leukemia ip, CD2F1 mice, survival T/C	96 % of control
CC(=O)Nc1nc(CC(N)C(=O)O)c[se]1 (stereo unspecified)	P388 leukemia ip, CD2F1 mice, survival T/C	97 % of control
NC(=O)NC(=O)/C=C/C(=O)OCCCl	P388 leukemia ip, CD2F1 mice, survival T/C	101 % of control
NC(c1ccccc1)c1cccs1 (stereo unspecified)	P388 leukemia ip, CD2F1 mice, survival T/C	100 % of control
C(CCSCCCCSCCCCCC1=NCCN1)CCC1=NCCN1	P388 leukemia ip, CD2F1 mice, survival T/C	94 % of control
CN(C(=O)c1ccccc1)C1CCCC(=O)CC1 (stereo unspecified)	P388 leukemia ip, CD2F1 mice, survival T/C	100 % of control
C=C(C)COc1ccc(C)cc1Br	P388 leukemia ip, CD2F1 mice, survival T/C	101 % of control
O=C(CN1CCOCC1)c1cc2c(c3ccccc13)CCCC2	P388 leukemia ip, CD2F1 mice, survival T/C	94 % of control
O=C1c2ccccc2C(=O)c2cnccc21	P388 leukemia ip, CD2F1 mice, survival T/C	109 % of control
Cc1ncc(Br)c(C(=O)N=C(N)N)n1	P388 leukemia ip, CD2F1 mice, survival T/C	95 % of control
COC(=O)C(CSSCC(C(=O)NC(Cc1ccccc1)C(=O)NCC(=O)OC(C)(C)C)N1C(=O)CCC1=O)NC(=O)OCc1ccccc1 (stereo unspecified)	P388 leukemia ip, CD2F1 mice, survival T/C	103 % of control
COc1cc(C(=O)NNC(C)C)cc(OC)c1OC	P388 leukemia ip, CD2F1 mice, survival T/C	104 % of control
O=C(CC(c1ccccc1Cl)C(C(=O)O)c1ccccc1)c1ccccc1 (stereo unspecified)	P388 leukemia ip, CD2F1 mice, survival T/C	100 % of control
COc1cc2c(cc1OC)[C@H]1[C@@H](CO)c3ccc4c(c3CN1CC2)OCO4	P388 leukemia ip, CD2F1 mice, survival T/C	109 % of control
Brc1cc(-c2ccccc2)ccc1OCC1CO1 (stereo unspecified)	P388 leukemia ip, CD2F1 mice, survival T/C	101 % of control
OCC1COC(c2ccccc2)=N1 (stereo unspecified)	P388 leukemia ip, CD2F1 mice, survival T/C	100 % of control
Cc1nnc(Cl)c(C#N)c1C	P388 leukemia ip, CD2F1 mice, survival T/C	104 % of control
COc1ccc(/C=C\C(C)=N\NC(=S)Nc2ccc(Br)cc2)cc1	P388 leukemia ip, CD2F1 mice, survival T/C	97 % of control
COC(=O)Nn1cc(C(C(C)=O)C(C)=O)c(C(C)=O)c1C	P388 leukemia ip, CD2F1 mice, survival T/C	99 % of control
CCn1ccc(NS(=O)(=O)c2ccc(N)cc2)nc1=O	P388 leukemia ip, CD2F1 mice, survival T/C	98 % of control
CCOC(=O)C1=C(N)OC(c2ccccc2)=C(C#N)C1c1ccccc1Cl (stereo unspecified)	P388 leukemia ip, CD2F1 mice, survival T/C	101 % of control
CCCC(NC(=O)OCc1ccccc1)C(=O)NC(Cc1ccccc1)C(N)=O (stereo unspecified) (Cbz-[Nva]-Phe-NH2; configuration not given here)	P388 leukemia ip, CD2F1 mice, survival T/C	89 % of control
CC(=O)Oc1cc(C)c2c(c1C)C1OC(=O)C(C)C1CC2 (stereo unspecified)	P388 leukemia ip, CD2F1 mice, survival T/C	100 % of control
COc1c(NC=O)c2c(c([N+](=O)[O-])c1OC)C(=O)OC2	P388 leukemia ip, CD2F1 mice, survival T/C	102 % of control
COC1=C(OC)S[C@H]2C3CC([C@H]2S1)[C@@H]1SC(OC)=C(OC)S[C@H]31	P388 leukemia ip, CD2F1 mice, survival T/C	97 % of control
CC(=O)OC(NC(=O)c1cc(C)cc(C)c1)c1ccncc1 (stereo unspecified)	P388 leukemia ip, CD2F1 mice, survival T/C	97 % of control
COC(=O)C1Cc2[nH]cnc2C(c2c(CO)cnc(C)c2O)N1 (stereo unspecified)	P388 leukemia ip, CD2F1 mice, survival T/C	104 % of control
Nn1c(-c2nn[nH]n2)nnc1-c1nn[nH]n1	P388 leukemia ip, CD2F1 mice, survival T/C	100 % of control
